The reader will find reported pKi values listed item by item below.
target: human AR (androgen receptor) (Homo sapiens, UniProt P10275); test: AR competition binding assay (HEK293 cell lysate); conditions: 0.36 nM 3H-methyltrienolone, 293-AR lysate
Sequence (P10275 whole entry): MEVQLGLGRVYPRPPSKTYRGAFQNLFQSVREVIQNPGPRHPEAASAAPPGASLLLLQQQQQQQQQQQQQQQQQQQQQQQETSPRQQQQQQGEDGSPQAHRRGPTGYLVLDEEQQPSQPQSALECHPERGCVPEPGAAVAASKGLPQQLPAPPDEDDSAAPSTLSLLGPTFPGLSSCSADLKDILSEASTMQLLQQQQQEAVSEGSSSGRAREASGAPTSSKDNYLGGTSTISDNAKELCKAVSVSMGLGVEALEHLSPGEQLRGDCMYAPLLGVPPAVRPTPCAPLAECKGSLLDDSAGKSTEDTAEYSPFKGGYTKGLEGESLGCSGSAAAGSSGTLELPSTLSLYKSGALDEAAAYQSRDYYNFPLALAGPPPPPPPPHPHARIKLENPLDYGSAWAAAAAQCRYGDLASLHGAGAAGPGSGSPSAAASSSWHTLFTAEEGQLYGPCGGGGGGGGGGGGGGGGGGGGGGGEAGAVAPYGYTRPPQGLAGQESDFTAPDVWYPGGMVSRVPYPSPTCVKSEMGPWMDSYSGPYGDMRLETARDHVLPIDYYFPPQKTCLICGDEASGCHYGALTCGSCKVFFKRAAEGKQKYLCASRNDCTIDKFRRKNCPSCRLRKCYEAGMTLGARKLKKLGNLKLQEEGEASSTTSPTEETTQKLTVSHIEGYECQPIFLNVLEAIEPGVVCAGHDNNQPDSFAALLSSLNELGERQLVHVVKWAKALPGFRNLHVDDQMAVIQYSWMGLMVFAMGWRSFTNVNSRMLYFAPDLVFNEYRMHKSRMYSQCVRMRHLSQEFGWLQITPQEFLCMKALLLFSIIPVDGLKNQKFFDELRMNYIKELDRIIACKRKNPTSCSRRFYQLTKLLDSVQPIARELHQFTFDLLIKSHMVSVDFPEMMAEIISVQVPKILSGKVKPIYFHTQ
pKi: −log10 of the molar value.

Example cases with answers are listed next.
CC(C)n1cc(-c2ccc(C#N)n2C)c2ccc(NS(C)(=O)=O)cc21 [Example 78] : 7.00 to 7.30
CC(C)n1cc(-c2ccc(C#N)c(F)c2)c2ccc(NS(C)(=O)=O)cc21 [Example 38] : 6.00 to 6.30
Cn1cc(-c2ccc(C#N)cc2)c2ccc(NS(=O)(=O)c3cccs3)cc21 [Example 32] : < 6.00
CC(C)n1cc(-c2ccc(C#N)cc2)c2ccc(NS(C)(=O)=O)cc21 [Example 28] : < 6.00

For the next question, use this compound.
Find the measured pKi: item Cc1ccc(-c2cn(C(C)C)c3cc(NS(C)(=O)=O)ccc23)cc1F [Example 84] , target or system human AR (androgen receptor) (Homo sapiens, UniProt P10275).
6.00 to 6.30
